So I've got a bunch of compounds here, and I need their log10(Kd) values.
assay: Binding affinity to human ASGR assessed as dissociation constant by SPR analysis
A difference of one corresponds to tenfold Kd; all values are log10 with Kd in µM.

Observe how each entry below is paired with its result.
# COMPOUND, REPORTED VALUE
data = [
    ("CC(=O)N[C@@H]1[C@@H](O)[C@@H](O)[C@@H](CO)O[C@H]1C", 1.61),
    ("C=CCO[C@H]1O[C@H](CN=[N+]=[N-])[C@H](O)[C@H](O)[C@H]1NC(C)=O", 0.20),
    ("C[C@@H]1O[C@H](CO)[C@H](O)[C@H](O)[C@H]1NC(=O)C(F)(F)F", 1.17),
    ("CC(=O)N[C@@H]1[C@@H](O)[C@@H](O)[C@@H](CO)O[C@H]1O", 1.61),
    ("CO[C@@H]1O[C@H](CO)[C@H](O)[C@H](O)[C@H]1O", 2.94),
    ("COc1cccc(-n2cc(C[C@H]3O[C@H](OCC(O)CNCc4ccccc4)[C@H](NC(=O)C(F)(F)F)[C@@H](O)[C@H]3O)nn2)c1 (stereo partly drawn)", 0.08),
]

# return log10(Kd) for each item in the list
1. O=C(N[C@H]1[C@H]2OC[C@](CO)(O2)[C@H](O)[C@@H]1O)C(F)(F)F
2. CC(=O)N[C@H]1[C@H]2OC[C@](CO)(O2)[C@H](O)[C@@H]1O

[0.26, 0.86]
